Tested on: Enterococcus faecalis
Measurement Description: Antibacterial activity against Enterococcus faecalis ATCC 29212 by CLSI method
Assay type: functional
Measured Metric: MIC (µg/mL)
Answers are plain numbers, in µg/mL.

Previously resolved entries follow.
COC(=O)N[C@H]1[C@@H](C)O[C@@H](O[C@H]2C/C=C(\C)[C@@H]3C=C[C@@H]4[C@@H](O[C@H]5C[C@@H](O[C@H]6CC[C@@H](O[C@@H]7C[C@@H](O)[C@@H](O[C@H]8CC[C@@H](O)[C@H](C)O8)[C@H](C)O7)[C@H](C)O6)[C@@H](OC(C)=O)[C@H](C)O5)[C@@H](C)C[C@H](C)[C@H]4[C@]3(C)C(=O)C3=C(O)[C@@]4(CC(C=O)=C[C@H](O)[C@H]4/C=C/2C)OC3=O)C[C@]1(C)[N+](=O)[O-] | 64
C/C1=C\[C@@H]2C=C[C@H](C)C[C@]23OC(=O)C(=C3O)C(=O)[C@@]2(C)[C@H]3[C@H](C=C[C@H]2/C(C)=C/C[C@@H]1O)[C@@H](O)[C@@H](C)C[C@@H]3C | 128
COC(=O)N[C@H]1[C@@H](C)O[C@@H](O[C@H]2C/C=C(\C)[C@@H]3C=C[C@@H]4[C@@H](O[C@H]5C[C@@H](O[C@H]6C[C@@H](O)[C@@H](O[C@@H]7C[C@@H](O)[C@@H](O)[C@H](C)O7)[C@H](C)O6)[C@@H](OC(C)=O)[C@H](C)O5)[C@@H](C)C[C@H](C)[C@H]4[C@]3(C)C(=O)C3=C(O)[C@@]4(CC(/C=C/C(C)=O)=C[C@H](O)[C@H]4/C=C/2C)OC3=O)C[C@]1(C)[N+](=O)[O-] | 128

Q: # MIC lookup, item NC[C@H]1O[C@H](O[C@H]2[C@H](O)[C@@H](O[C@H]3O[C@H](CO)[C@@H](O)[C@H](N)[C@H]3O)[C@H](N)C[C@@H]2N)[C@H](O)[C@@H](O)[C@@H]1O [KANAMYCIN]
A: 32

###

Tested on: Staphylococcus aureus
Measurement Description: Antibacterial activity against methicillin-resistant Staphylococcus aureus isolate shhs-A1 by CLSI method
Assay type: functional
Measured Metric: MIC (µg/mL)
Numbers only, in µg/mL.

COC(=O)N[C@H]1[C@@H](C)O[C@@H](O[C@H]2C/C=C(\C)[C@@H]3C=C[C@@H]4[C@@H](O[C@H]5C[C@@H](O[C@H]6CC[C@@H](O[C@@H]7C[C@@H](O)[C@@H](O)[C@H](C)O7)[C@H](C)O6)[C@@H](OC(C)=O)[C@H](C)O5)[C@@H](C)C[C@H](C)[C@H]4[C@]3(C)C(=O)C3=C(O)[C@@]4(CC(/C=C/C(C)=O)=C[C@H](O)[C@H]4/C=C/2C)OC3=O)C[C@]1(C)[N+](=O)[O-] | 32

Would you kindly look at the next entry?
Q: Report MIC for NC[C@H]1O[C@H](O[C@H]2[C@H](O)[C@@H](O[C@H]3O[C@H](CO)[C@@H](O)[C@H](N)[C@H]3O)[C@H](N)C[C@@H]2N)[C@H](O)[C@@H](O)[C@@H]1O [KANAMYCIN] please.
A: 64
